Source: the kinase profiling compilation of Christmann-Franck et al. (2016)

molecular target: PDPK1 (human); assay: KINOMEscan competition binding; details: compound 10.0 µM
Give kinase still bound, per cent of control for every item shown.
Please reply with the bare figure in % and do not write the unit itself.

Would you kindly share the measured kinase still bound, per cent of control for O=C(NOC[C@H](O)CO)c1ccc(F)c(F)c1Nc1ccc(I)cc1F ?
71

Would you kindly share the measured kinase still bound, per cent of control for OCCCNc1cc(-c2ccnc(Nc3cccc(Cl)c3)n2)ccn1 ?
100

Would you kindly share the measured kinase still bound, per cent of control for C=CC(=O)Nc1cc(NC(=O)c2ccc(C)c(NC(=O)c3ccno3)c2)cc(C(F)(F)F)c1 ?
94

Would you kindly share the measured kinase still bound, per cent of control for O=C1Nc2ccc(I)cc2/C1=C/c1cc(Br)c(O)c(Br)c1 ?
100

Would you kindly share the measured kinase still bound, per cent of control for COc1cc(C(=O)NC2CCN(C)CC2)ccc1Nc1ncc2c(n1)N(C1CCCC1)C(C)CC(=O)N2C (configuration not stated) ?
100

Would you kindly share the measured kinase still bound, per cent of control for Cc1ccc(C(=O)Nc2cccc(C(F)(F)F)c2)cc1Nc1cncc(C(N)=O)c1 ?
100

Would you kindly share the measured kinase still bound, per cent of control for CCOc1cc2ncc(C#N)c(Nc3ccc(OCc4ccccn4)c(Cl)c3)c2cc1NC(=O)/C=C/CN(C)C ?
88

Would you kindly share the measured kinase still bound, per cent of control for C[C@@H](Oc1cc(-n2cnc3ccc(CN4CCN(C)CC4)cc32)sc1C(N)=O)c1ccccc1C(F)(F)F ?
100

Would you kindly share the measured kinase still bound, per cent of control for O=C(NC1CC1)c1cccc(-c2ccc3c(NC(=O)C4CC4)n[nH]c3c2)c1 ?
81

Would you kindly share the measured kinase still bound, per cent of control for COc1cc(N2CCN(C)CC2)ccc1Nc1nc(N)c(C(=O)c2c(Cl)cccc2Cl)s1 ?
100

Would you kindly share the measured kinase still bound, per cent of control for C=CC(=O)Nc1cccc(Oc2nc(Nc3ccc(N4CCN(C)CC4)cc3OC)ncc2Cl)c1 ?
100

Would you kindly share the measured kinase still bound, per cent of control for CN(C)C/C=C/C(=O)Nc1cccc(Nc2ncc3c(n2)N(C)c2ccccc2C(=O)N3C)c1 ?
86
